Molecular target: MGMT G132R (Homo sapiens, UniProt P16455 1-207, G132R)
Sequence (P16455 whole entry G132R): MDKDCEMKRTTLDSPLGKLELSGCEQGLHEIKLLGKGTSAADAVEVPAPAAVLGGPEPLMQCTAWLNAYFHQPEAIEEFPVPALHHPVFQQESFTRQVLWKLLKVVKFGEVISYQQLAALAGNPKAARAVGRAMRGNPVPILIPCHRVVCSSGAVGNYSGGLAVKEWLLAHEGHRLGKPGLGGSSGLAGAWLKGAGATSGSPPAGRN
Experiment: pre-steady-state rapid-quench kinetics
assay endpoint: Kd (nM)

1) PvuIITopD/PvuIIBottom (O6MeG 18 bp duplex) (dsDNA, O6-methylguanine at position 13 of strand 1 (printed as X), paired with C) DNA 1: GCCCGGCCAGCTGCAGTT DNA 2: AACTGCAGCTGGCCGGGC | 14
